For each record, write down the corresponding Change of B-scores (%).
SYSTEM NAME: MRGPRX2-MUT (MRGPRX2 N62S mutation) (Homo sapiens, UniProt Q96LB1, N62S)
Construct: expressed in transfected cells
Sequence (Q96LB1 whole entry N62S): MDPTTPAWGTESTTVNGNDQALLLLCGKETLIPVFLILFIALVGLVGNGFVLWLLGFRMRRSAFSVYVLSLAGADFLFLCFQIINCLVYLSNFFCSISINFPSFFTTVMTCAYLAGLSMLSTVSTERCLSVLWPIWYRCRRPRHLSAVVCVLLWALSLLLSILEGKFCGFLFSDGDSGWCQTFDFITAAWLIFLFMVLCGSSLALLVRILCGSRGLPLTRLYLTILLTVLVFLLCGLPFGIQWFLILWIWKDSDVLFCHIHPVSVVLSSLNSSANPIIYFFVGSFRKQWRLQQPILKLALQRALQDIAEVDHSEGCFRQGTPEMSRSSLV
TEST SUMMARY: Primary HTS, Ca2+ mobilization (fluorescence ratio, B-score) in HEK293-Gα15 cells stably expressing the MRGPRX2 N62S mutation
Assay type: cell-based
CONDITION LABEL: MRGPRX2-MUT in comparison to MRGPRX2-WT cells, 10 μM, Supplementary Table 1
Where a name gives a salt, the structure may show the parent alone.
Give bare numbers, in %.

* CN(C)CCCN1c2ccccc2CCc2ccccc21 [Imipramine Hydrochloride] | -47.47
* CO[C@@H](C(=O)N1Cc2n[nH]c(NC(=O)c3ccc(N4CCN(C)CC4)cc3)c2C1)c1ccccc1 | -97.00
* CN1CCCC(n2nc(Cc3ccc(Cl)cc3)c3ccccc3c2=O)CC1 (centres unmarked) [Azelastine Hydrochloride] | -90.42
* CC(C)NCC(O)c1cc(O)cc(O)c1 (centres unmarked) | -88.28

// next item, Change of B-scores (%) requested
Exam item: Hello, I am looking for reported Change of B-scores (%) with MRGPRX2-MUT (MRGPRX2 N62S mutation) (Homo sapiens, UniProt Q96LB1, N62S) for N=C(N)c1ccc(OCCCCCOc2ccc(C(=N)N)cc2)cc1 [Pentamidine Isethionate] . Could you help?
Marked response: -98.84
